tested on: HCCLM3; experiment: CellTiter-Glo cell viability, HCCLM3 (human high metastatic hepatoma cell); format: cell-based; details: Homo sapiens, HCCLM3, 72 h, read-out: IC50 calculated based on the concentration of dihydroxyacetone
value kind: IC50 (mM)
Just the number please, in mM, no unit attached.

Entry O=C(CO)CO [Dihydroxyacetone, 1,3-dihydroxyacetone] — recorded IC50 = 5.48

---

system: HCC1937; assay: CellTiter-Glo cell viability, HCC1937 (human breast cancer cell); assay type: cell-based; settings: HCC1937; 72 hours; n=4; read-out: IC50
value kind: pIC50
// pIC50: -log10(molar conc.)

Entry N.N.[Cl][Pt][Cl] [DDP, cis-diammine platinum dichloride, reference compound] — recorded pIC50 = 4.83

---

tested on: C-33A; assay: CellTiter-Glo cell viability, C-33A (human cervical cancer cell); assay type: cell-based; conditions: C-33A; 72 hours; n=4; read-out: IC50
value kind: IC50
Answers without a unit are incomplete; give the number and then its unit.

Record for N.N.[Cl][Pt][Cl] [DDP, cis-diammine platinum dichloride, reference compound] under target or system C-33A: IC50 reported as 2850 nM

---

tested on: SH-SY5Y; test: CellTiter-Glo cell viability, SH-SY5Y (human neuroblastoma cell); type: cell-based; conditions: Homo sapiens, 72 h, read-out: IC50 calculated based on the concentration of dihydroxyacetone
value kind: IC50

Entry O=C(CO)CO [Dihydroxyacetone, 1,3-dihydroxyacetone] — recorded IC50 = 1.81 mM

---

test system: TF1-α; assay: CellTiter-Glo cell viability, TF1-α (human erythroleukemia cell); format: cell-based; conditions: TF1-α; 72 hours; n=4; read-out: IC50
value kind: IC50
Answers without a unit are incomplete; give the number and then its unit.

Entry N.N.[Cl][Pt][Cl] [DDP, cis-diammine platinum dichloride, reference compound] — recorded IC50 = 3.76 µM

---

Test system: SW620
Test: CellTiter-Glo cell viability, SW620 (human colon cancer cell)
Type: cell-based
Details: Homo sapiens, SW-620, 72 h, read-out: IC50 calculated based on the concentration of dihydroxyacetone
Experimental: 15 g of the commercially available 1,3-dihydroxyacetone in the solid powder form was added into 100 mL of 5% glucose (infusion bottle), then filled into 100 bottles. […] The medicaments were diluted in gradient with a 5% glucose solution to 5×, respectively. […] The cell viability was measured with Luminescence Cell Viability Assay kit after incubating for 72 hours in an incubator. […]
value kind: IC50 (mM)
Just the number please, in mM, no unit attached.

Record for O=C(CO)CO [Dihydroxyacetone, 1,3-dihydroxyacetone] under target or system SW620: IC50 reported as 8.54

---

tested on: WIL2-S; test: CellTiter-Glo cell viability, WIL2-S (human B lymphocyte); format: cell-based; details: WIL2-S; 72 hours; n=4; read-out: IC50
value kind: pIC50
// pIC50: -log10(molar conc.)

Entry N.N.[Cl][Pt][Cl] [DDP, cis-diammine platinum dichloride, reference compound] — recorded pIC50 = 5.00

---

tested on: PANC-1; assay: CellTiter-Glo cell viability, PANC-1 (human pancreatic cancer cell line); format: cell-based; conditions: PANC-1; 72 hours; n=4; read-out: IC50
value kind: IC50 (µM)
Just the number please, in µM, no unit attached.

Entry N.N.[Cl][Pt][Cl] [DDP, cis-diammine platinum dichloride, reference compound] — recorded IC50 = 22.4
